Species on record: Rattus norvegicus
Assay: Open TG-GATES - Regimen: Single
Type: toxicity, organism-based, Sprague-Dawley
Design: regimen Single, gender Male, age 6 weeks
Settings: in vivo, po, 0 mg/kg, 9 h, tissue Plasma, route gavage, dose level Control
VALUE_TYPE: ALT (IU/L)
Give bare numbers, in IU/L.

Sample records with ALT:
{"COMPOUND": "CC(=O)Oc1ccccc1C(=O)O", "RECORDED_RESULT": 31.2}
{"COMPOUND": "O=C(O)c1cc(/N=N/c2ccc(S(=O)(=O)Nc3ccccn3)cc2)ccc1O", "RECORDED_RESULT": 31.8}
{"COMPOUND": "NC(=O)N/N=C/c1ccc([N+](=O)[O-])o1", "RECORDED_RESULT": 47.8}
{"COMPOUND": "CCc1cc(C(N)=S)ccn1 [ETHIONAMIDE]", "RECORDED_RESULT": 31.2}
{"COMPOUND": "CSc1ccc2c(c1)N(CCC1CCCCN1C)c1ccccc1S2 (configuration not stated)", "RECORDED_RESULT": 30.6}

Please state ALT for every compound in the list that follows.
1. Cn1c(=O)c2[nH]cnc2n(C)c1=O.O
2. COc1ccc(Cc2nccc3cc(OC)c(OC)cc23)cc1OC
3. NC(=O)N1c2ccccc2C=Cc2ccccc21 [CARBAMAZEPINE]

(A)
1: 35.2; 2: 41.2; 3: 32

Please state ALT for every compound in the list that follows.
1. CN(C)CCC=C1c2ccccc2CCc2ccccc21
2. C[C@H](CS)C(=O)N1CCC[C@H]1C(=O)O
3. O=C(O)c1cn(C2CC2)c2cc(N3CCNCC3)c(F)cc2c1=O
4. Clc1ccccc1CN1CCc2sccc2C1

(A)
[40.8, 33.4, 32.4, 33.4]

Origin of values: ChEMBL document CHEMBL3885861
